Would you kindly list Fluorescence emission maximum λFL for each of these compounds?
test: Steady-state fluorescence spectra and quantum yields in CH3OH; format: physicochemical
Numbers only, in nm.

C[N+]1=c2cc3c(cc2C(C)(C)CC1)=C(c1ccc(C(=S)N2CCCCC2)s1)c1cc2c4c(c1[Se]3)CCCN4CCC2.[Cl-] [Compd 7]: 650

Provide reported Fluorescence emission maximum λFL for each item, in the same order as listed.
1. C[N+]1=c2cc3c(cc2C(C)(C)CC1)=C(c1ccc(C(=O)N2CCCCC2)s1)c1cc2c4c(c1[Se]3)CCCN4CCC2.[Cl-] [Compd 8]
2. CN1CCC(C)(C)c2cc3c(cc21)[Se]c1cc2c(cc1=C3c1ccc(C(=S)N3CCCCC3)s1)C(C)(C)CC[N+]=2C.[Cl-] [Compd 9]
3. CN1CCC(C)(C)c2cc3c(cc21)[Se]c1cc2c(cc1=C3c1ccc(C(=O)N3CCCCC3)s1)C(C)(C)CC[N+]=2C.[Cl-] [Compd 10]

[650, 645, 645]
